target: Taq DNA polymerase I532T/R536C/K540C/H784C (UniProt P19821 P19821:1-832, I532T,R536C,K540C,H784C); assay: EMSA; 1x TAE with 2 mM EDTA, pH 8.3; above highest tested 1000 nM; details: tags: Fermentas; label: 5'-33P
Sequence (P19821 whole entry I532T/R536C/K540C/H784C, one chain of several): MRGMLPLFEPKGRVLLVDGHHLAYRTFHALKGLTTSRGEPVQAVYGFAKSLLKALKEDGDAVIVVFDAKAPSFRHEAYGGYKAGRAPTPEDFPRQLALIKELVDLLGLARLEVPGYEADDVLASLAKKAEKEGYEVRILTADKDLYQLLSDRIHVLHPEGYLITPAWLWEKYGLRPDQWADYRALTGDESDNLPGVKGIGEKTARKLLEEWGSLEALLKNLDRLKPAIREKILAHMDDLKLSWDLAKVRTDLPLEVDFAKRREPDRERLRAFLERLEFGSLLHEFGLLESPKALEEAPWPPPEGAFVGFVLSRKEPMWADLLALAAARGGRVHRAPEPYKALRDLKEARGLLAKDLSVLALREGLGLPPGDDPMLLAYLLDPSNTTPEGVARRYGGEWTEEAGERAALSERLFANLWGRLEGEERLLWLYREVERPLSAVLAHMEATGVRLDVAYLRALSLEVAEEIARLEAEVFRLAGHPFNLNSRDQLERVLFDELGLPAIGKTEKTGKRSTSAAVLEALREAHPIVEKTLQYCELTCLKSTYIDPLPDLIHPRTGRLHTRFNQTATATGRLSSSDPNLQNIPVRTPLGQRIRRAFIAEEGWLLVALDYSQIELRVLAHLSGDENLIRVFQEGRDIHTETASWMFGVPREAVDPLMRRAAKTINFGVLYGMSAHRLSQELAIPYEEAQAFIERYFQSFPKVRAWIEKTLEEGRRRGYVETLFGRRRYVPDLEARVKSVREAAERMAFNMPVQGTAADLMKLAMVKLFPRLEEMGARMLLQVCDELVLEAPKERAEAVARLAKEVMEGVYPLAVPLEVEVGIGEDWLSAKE
property_label: Kd (µM)

1. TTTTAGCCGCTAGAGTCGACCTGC (ssDNA) [24 nt primer] = 5.2

Data credit: patent US20110059490
